Test system: EKVX NSCLC
PROTOCOL DESCRIPTION: NCI tumour cell line growth inhibition, 48 h
VALUE KIND: TGI (µM)

1. COc1cc(-c2ccc(-c3ccc(C(=N)N)nc3)s2)cc(OC)c1OC : 18.2
2. C[C@]12CC[C@@H]3c4cc(-c5ccc(F)cc5)c(O)cc4CC[C@H]3[C@@H]1CC[C@@H]2O : 20.3
3. CCCSc1ccc2[nH]c(/N=C/c3ccccc3)cc2c1 : 76.2

---

Reported GI50 values for a set of compounds
Test system: M14 melanoma
PROTOCOL DESCRIPTION: NCI tumour cell line growth inhibition, 48 h
VALUE KIND: GI50

1) Cc1cc(O)cc2c1[C@]1(C)CCC3C(C)(C)CCC[C@]3(C)[C@H]1C2 (stereo not given in full) : 21.6 µM
2) CC(=Nc1ccccc1)C1=C(O)C(Cc2ccc(O)cc2)NC1=O (stereo not given) : 0.0469 µM
3) CNC(=O)c1ccc(N2C(=S)N(c3ccc(C#N)c(C(F)(F)F)c3)C(=O)C2(C)C)cc1F : 32.4 µM
4) CS(=O)(=O)CCNCc1ccc(-c2ccc3ncnc(Nc4ccc(OCc5ccccc5)c(Br)c4)c3c2)o1 : 4.98 µM
5) Cc1ccc(NC2=C(Cl)C(=O)N(Cc3ccc(Cl)cc3)C2=O)cc1O : 13.8 µM
